Tested on: Saccharomyces cerevisiae
Assay: protein stability index of tFT-peptide fusion (C-terminal peptide) (PSI (0-1 scale)); higher = more stable (slower turnover);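 also: PSI is a weighted mean of sequencing reads over stability bins, variants kept only with over 10 reads, mCherry proximal and sfGFP distal, peptide attached via GGGS linker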
Conditions: genetic background: wild type; temperature: 30 C
In this section, each of the sequences is paired with its reported protein stability index.

SEQ STRING | protein stability index
LPAPSPSPHPPA | 0.689
EFEDCGAWGNIG | 0.621
PPPPPRLTPPRL | 0.722
FLFGLGEIDGVR | 0.84
PLSPRPLPPPPP | 0.713
HFLRYCSWFGLL | 0.15
WSSTLFFFVGFS | 0.673
LPLPSTYHHISK | 0.68
LSTAWFYFSLLF | 0.635
IKKIEKANRKTK | 0.661

====

System: Saccharomyces cerevisiae
Assay: protein stability index of tFT-peptide fusion (C-terminal peptide) (PSI (0-1 scale)); higher = more stable (slower turnover)
Settings: genetic background: wild type; temperature: 30 C
Classify as follows. Reported protein stability index greater than or equal to 0.7: criterion met. Reported protein stability index below: criterion not met.

SEQ STRING | CLASS
KKTKKKRTEPQP | criterion met
LVVSLGLFLLRH | criterion not met
VIRFNSAPRFLV | criterion not met
LFGFFLECCFCT | criterion not met
TFISNYSCILSL | criterion not met
PPAPSPPPLPAA | criterion not met
AICSVRSGITLS | criterion not met
DGVATLYGRDVE | criterion not met
RSLSFGMVLCYS | criterion not met
CFCPWFGRVCLG | criterion not met
GWVVGRGRLGVV | criterion not met
NNRIRNIISIRK | criterion met
LVSGFRYPFSCL | criterion not met
TAGIIINCPIYL | criterion not met
SPLLLSSPRPSP | criterion met
PCPLAHSLWLMF | criterion not met
NLRSIYKLGRLT | criterion not met
MIVSILRSRSFS | criterion not met
KVEVKRMKKEVK | criterion not met
WGGGGVLEVLLG | criterion not met
LLKQDNSVLSEL | criterion not met
CLGPGTFLLFFV | criterion not met
PTPGGLIIVLGS | criterion not met
PVSCLGNQACYV | criterion not met
LLWVSAPHRYVR | criterion not met
PPRSRPLLRPLP | criterion met
DVHPLFYCIPVY | criterion not met
KTTTQRQEETAE | criterion not met
VYSPVEHLLATF | criterion not met
IKIKKKKKKRHR | criterion not met
SPPRLPPLAAPP | criterion not met
PPRPPRPSPPPP | criterion met
GIPYALVTPPFP | criterion met
VAPPRQGSPASR | criterion met
VSPPLHFLPLHF | criterion not met
AHFQDSTSPATI | criterion met
LYTFCSMDANPM | criterion not met

====

System: Saccharomyces cerevisiae
Assay: protein stability index of tFT-peptide fusion (C-terminal peptide) (PSI (0-1 scale)); higher = more stable (slower turnover)
Conditions: genetic background: wild type; temperature: 30 C
In this section, each of the sequences is paired with its reported protein stability index.

SEQ STRING | protein stability index
WVCRVWGGWLRG | 0.686
PPPPAPSPPPSP | 0.717
PGCYRVPIHSFS | 0.713
PPHHPPPTLFPA | 0.698
EEKRKRKSQNEI | 0.702
PANQVKTILGRL | 0.694
FDPSFLSVCRSK | 0.72
LPKARPRTNPPP | 0.712
RPPPLLSPPSPP | 0.718
ASSMLPVCLVTL | 0.588
VPWTPPRVERVP | 0.737
GRERGTEKGESG | 0.631
WVSFVFCSLLGG | 0.588
IDSSLERVRQHS | 0.677
LPRSPPCCHVND | 0.628
APPPNPPRPSSR | 0.754
LVWFQYFRLWGG | 0.61
QVFITGHQLCVM | 0.535
AKDSTAVVRLGT | 0.703
VYLTGRCRRCLR | 0.702
RKKTQQKTQNIQ | 0.67
DQKFSPYRTPPF | 0.667
GAVRAVAGGGAR | 0.711
SLGHIGFWRFAG | 0.191
PALPPPSLPPPP | 0.672
GLCAVWSGAGRC | 0.7
ESKRKLHSSRYS | 0.688
RAFEGGRHCRAG | 0.67
FLVPLSPMLLSA | 0.4
SSNVTVLGVLYC | 0.697
ALPPGSRPLIPS | 0.628
GAGRVRAPGRWP | 0.697
VFFLVHFHLPMF | 0.455

====

Tested on: Saccharomyces cerevisiae
Assay: protein stability index of tFT-peptide fusion (C-terminal peptide) (PSI (0-1 scale)); higher = more stable (slower turnover)
Conditions: genetic background: wild type; temperature: 30 C

SEQ STRING | protein stability index
GGIRGEGEVGKR | 0.69
GSGSVWQGLGSG | 0.711
LSQFQEPPFYLF | 0.708
PIQYMLRSSMPR | 0.688
KVGGRGQGVKLG | 0.629
SSLTCLLFPPGY | 0.695
GYLFLGNMTRHN | 0.737
FSICGFYSLCFG | 0.492
DSMLACIHPSPI | 0.708
GGGGGCVGRLWG | 0.742
VLGLYSLLLSFF | 0.337
SSMSAVFRLQVC | 0.276
LPPPYPRPPPFR | 0.68
LVFFLFFFRCFS | 0.449
WIFRDHVLRRFP | 0.661
HLGVLDSFLAEG | 0.629
FPFFLLAAPFLA | 0.237
TTPPFVSALPLS | 0.711
VCLVHSPFDTLP | 0.699

====

In this section, each of the sequences is paired with its reported protein stability index.
Test system: Saccharomyces cerevisiae
Test: protein stability index of tFT-peptide fusion (C-terminal peptide) (PSI (0-1 scale)); higher = more stable (slower turnover)
Conditions: genetic background: cdc53-1; temperature: 37 C

SEQ STRING | protein stability index
TFLCSSLALAVI | 0.509
VFFLRVHFWSFF | 0.487
LGLLIFQWARVL | 0.5

====

System: Saccharomyces cerevisiae
Experiment: protein stability index of tFT-peptide fusion (C-terminal peptide) (PSI (0-1 scale)); higher = more stable (slower turnover)
Conditions: genetic background: wild type; temperature: 30 C
Classify as follows. Reported protein stability index greater than or equal to 0.7: 1 (yes). Reported protein stability index below: 0 (no).

SEQ STRING | CLASS
TPTSLPGPRVLS | 0 (no)
PTETRRIGHHEG | 0 (no)
GLPPLLSPVPLR | 0 (no)
VYGIAPPTRCFS | 0 (no)
GHCFCRLLPLHW | 1 (yes)

====

Test system: Saccharomyces cerevisiae
Test: protein stability index of tFT-peptide fusion (C-terminal peptide) (PSI (0-1 scale)); higher = more stable (slower turnover)
Conditions: genetic background: cdc53-1; temperature: 37 C

SEQ STRING | protein stability index
LRGIVSVWILRA | 0.56
PLHPSSTPATPF | 0.741
VWFGGFVCSVLG | 0.361
VWFGGLAVCCGG | 0.405
YHGVYLARVLQA | 0.677
IGSARIKLLCYH | 0.705
YSVNSLFCKVFG | 0.478
WGGEFLSLTLSS | 0.761
PPPPPSRPFSPP | 0.741
PGWALLQLVFLK | 0.298
FRVILISACESV | 0.582
PLRLRCASLFAN | 0.692
GVRRRQLIWSVC | 0.644

====

Test system: Saccharomyces cerevisiae
Experiment: protein stability index of tFT-peptide fusion (C-terminal peptide) (PSI (0-1 scale)); higher = more stable (slower turnover)
Conditions: genetic background: doa10 deletion; temperature: 30 C

SEQ STRING | protein stability index
VCPWGYCSEWGF | 0.692
SSRPLSPQSLRL | 0.607
GVRRRQLIWSVC | 0.145
TVRVVMLRLLFT | 0.309
AGGGGRFWVCVG | 0.215
WGGEFLSLTLSS | 0.679
FFVLGPVVMSIH | 0.266
GKWVWSSFVWFG | 0.0899
SWWGDVVWFVVC | 0.176
CASIVDGFAFRF | 0.646
WHVSLRFAFYVF | 0.136
LIRDLLYMAVLV | 0.32
PLRLRCASLFAN | 0.304

====

Test system: Saccharomyces cerevisiae
Test: protein stability index of tFT-peptide fusion (C-terminal peptide) (PSI (0-1 scale)); higher = more stable (slower turnover)
Settings: genetic background: wild type; temperature: 30 C
VALUE KIND: protein stability index

SEQ STRING | TARGET DESC | VALUE OBSERVED
PPLLPPVSPPPP | Saccharomyces cerevisiae | 0.684
PHPHLPAPTPRT | Saccharomyces cerevisiae | 0.702
GVWFWRLKGEGN | Saccharomyces cerevisiae | 0.713
PSLLPPRVCRPS | Saccharomyces cerevisiae | 0.68
KIKNYNSGKIKK | Saccharomyces cerevisiae | 0.716
PLLPSLPLPPSP | Saccharomyces cerevisiae | 0.716
KCPPQKRPTLIQ | Saccharomyces cerevisiae | 0.679
AGRTGVLGGHVP | Saccharomyces cerevisiae | 0.691
KINQDKKKGKKK | Saccharomyces cerevisiae | 0.686
ARHESRPTHSAQ | Saccharomyces cerevisiae | 0.692
KSDKVYKQKPNT | Saccharomyces cerevisiae | 0.705
RPNQNAFACMSP | Saccharomyces cerevisiae | 0.702
GYSYTEFPPEAV | Saccharomyces cerevisiae | 0.708
PPASFTPPFLPP | Saccharomyces cerevisiae | 0.69
GLWCVGGGAVGV | Saccharomyces cerevisiae | 0.682
